Target: norepinephrine transporter (Rattus norvegicus)
Construct: using synaptosomes prepared from rat midbrain and parietal/occipital cortex, respectively; from tissue; host or cells: rat parietal/occipital cortex synaptosomes
Sequence (Q63380 1-617): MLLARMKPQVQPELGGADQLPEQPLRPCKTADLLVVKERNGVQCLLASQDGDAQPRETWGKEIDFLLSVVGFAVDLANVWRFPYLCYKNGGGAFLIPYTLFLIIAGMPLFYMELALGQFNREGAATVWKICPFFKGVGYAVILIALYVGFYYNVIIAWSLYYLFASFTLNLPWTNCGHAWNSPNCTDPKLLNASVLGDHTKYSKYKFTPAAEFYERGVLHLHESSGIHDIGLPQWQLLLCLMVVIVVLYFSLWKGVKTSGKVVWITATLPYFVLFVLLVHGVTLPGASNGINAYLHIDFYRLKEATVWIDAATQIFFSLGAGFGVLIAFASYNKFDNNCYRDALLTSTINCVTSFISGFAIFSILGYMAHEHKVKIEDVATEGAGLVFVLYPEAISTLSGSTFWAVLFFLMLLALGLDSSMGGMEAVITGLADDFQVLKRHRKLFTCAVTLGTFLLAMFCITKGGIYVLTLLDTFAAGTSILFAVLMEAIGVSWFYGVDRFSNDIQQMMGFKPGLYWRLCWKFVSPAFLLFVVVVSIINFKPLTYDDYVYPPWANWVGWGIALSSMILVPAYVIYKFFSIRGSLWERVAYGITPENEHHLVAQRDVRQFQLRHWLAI
Test: Synaptosomal uptake of [3H]NE
Type: biochemical
Quantity: pKi
Keep in mind that pKi stands for -log10 of concentration in molar terms.

API: value(readout=pKi, system=norepinephrine transporter (Rattus norvegicus)) for record CCCCC1C(c2ccccc2)C2CCN1CC2 (racemic) [(±)-12, 2-Butyl-3-phenylquinuclidine]
6.87

API: value(readout=pKi, system=norepinephrine transporter (Rattus norvegicus)) for record CCCCC1C(c2ccc(C)cc2)C2CCN1CC2 (single isomer, unassigned; (+)) [(+)-13, 2-Butyl-3-(4-methylphenyl)quinuclidine]
6.79

Data origin: patent US20050131051A1
